// data source = patent US11154563B2

# assay_system: immunoproteasome LMP7/B5i subunit (Homo sapiens, UniProt P20618+P28062)
# experiment_notes: Caliper-based proteasome enzymatic activity assay, LMP7
# measurement_parameters: human recombinant immunoproteasome 0.3 nM, FAM-peptide substrate 1 μM, 3 h at rt
assay_endpoint: pIC50
// scale note: pIC50 = -log10(conc_M); give the bare number

Check out these entries, answers already filled in.
C=CC(=O)N1CCOC[C@@H]1COC(=O)N[C@@H](Cc1coc2ccccc12)B(O)O 8.52
CC(C)(C=C(C#N)C(=O)N1CCCCC[C@@H]1COC(=O)N[C@@H](Cc1coc2ccccc12)B(O)O)N1CCOCC1 8.85

Recorded pIC50 for C=CC(=O)N1CCC[C@@H]1COC(=O)N[C@@H](Cc1ccc(C)cc1)B(O)O , please?
7.22

Name the reported pIC50 value associated with the molecule CC#CC(=O)N1C[C@@H]2C[C@@H]2[C@@H]1COC(=O)N[C@@H](Cc1coc2ccccc12)B(O)O
8.15

###

Measured pIC50 accompanies every entry in the list below.
# assay_system: immunoproteasome LMP7/B5i subunit (Homo sapiens, UniProt P20618+P28062)
# experiment_notes: Caliper-based proteasome enzymatic activity assay, LMP7
# measurement_parameters: human recombinant immunoproteasome 0.3 nM, FAM-peptide substrate 1 μM, 3 h at rt
Quick note: pIC50 means taking -log10 of the concentration in moles per liter.

Please give the measured pIC50 for this compound: Cc1ccc(C[C@H](NC(=O)OC[C@H]2CCCCN2C(=O)C(C#N)=CC(C)(C)N2CCC(F)(F)C2)B(O)O)cc1
8.80

Consider the compound CC(C)C=C(C#N)C(=O)N1CCC[C@@H]1COC(=O)N[C@@H](Cc1ccccc1)B(O)O and give its measured pIC50.
8.59

Requested read-out: pIC50. Entry: CC(C)(C)C[C@H](NC(=O)OC[C@@]1(C)CCCN1C(=O)C(C#N)=CC(C)(C)N1CCC(F)(F)C1)B(O)O
8.82

Requested read-out: pIC50. Entry: CN(C)C/C=C/C(=O)N1C[C@@H]2C[C@@H]2[C@@H]1COC(=O)N[C@@H](Cc1coc2ccccc12)B(O)O
7.89

###

# assay_system: constitutive proteasome β5c unit (Homo sapiens, UniProt P20618+P28074)
# experiment_notes: Caliper-based proteasome enzymatic activity assay, β5c
# Assay type: biochemical
# measurement_parameters: human recombinant constitutive proteasome 0.3 nM, FAM-peptide substrate 1 μM, 3 h at rt; read-out: β5c subunit IC50
pIC50: −log10 of the molar value.
pIC50 below 6 gives -1; pIC50 at or above it gives 1.

Say whether CC(C)(C=C(C#N)C(=O)N1CCCC[C@@H]1COC(=O)N[C@@H](Cc1coc2ccccc12)B(O)O)N1CCC(F)(F)C1 shows pIC50 of 6 or more.
1

Tell me whether pIC50 is at least 6 here: C=CC(=O)N1C[C@@H](F)C[C@@H]1COC(=O)N[C@@H](Cc1ccccc1)B(O)O
1

###

# assay_system: immunoproteasome LMP7/B5i subunit (Homo sapiens, UniProt P20618+P28062)
# experiment_notes: Caliper-based proteasome enzymatic activity assay, LMP7
# measurement_parameters: human recombinant immunoproteasome 0.3 nM, FAM-peptide substrate 1 μM, 3 h at rt
assay_endpoint: pIC50
By convention, pIC50 is the negative base-10 log of a molar concentration.

compound	pIC50
Cc1ccc(C[C@H](NC(=O)OC[C@H]2CCCCCN2C(=O)C(C#N)=CC(C)(C)N2CCC(F)(F)C2)B(O)O)cc1 [Example 84]	8.54
CC(C)C=C(C#N)C(=O)N1CCC[C@@H]1COC(=O)N[C@@H](Cc1coc2ccccc12)B(O)O [Example 16]	8.60

Missing value: pIC50, immunoproteasome LMP7/B5i subunit (Homo sapiens, UniProt P20618+P28062), entry CC(C)(C=C(C#N)C(=O)N1C[C@@H]2C[C@@H]2[C@@H]1COC(=O)N[C@@H](Cc1ccc(C(F)(F)F)cc1)B(O)O)N1CCOCC1 [Example 114] . Fill in?
8.64
